Ref: ChEMBL document CHEMBL3621073

What selectivity ratio was measured for each of the following?
experiment: Therapeutic index, ratio of MHC50 for chicken RBC to MIC99 for Mycobacterium tuberculosis H37Rv; details: chicken red blood cells, read-out: TI

Record excerpt, results attached:
COC(=O)CC[C@@H](C)[C@H]1CC[C@H]2[C@@H]3[C@H](OC(=O)C[N+](C)(C)C)C[C@@H]4C[C@H](OC(=O)C[N+](C)(C)C)CC[C@]4(C)[C@H]3C[C@H](OC(=O)C[N+](C)(C)C)[C@]12C.[Cl-].[Cl-].[Cl-]	> 20
COC(=O)CC[C@@H](C)[C@H]1CC[C@H]2[C@@H]3[C@H](OC(=O)C[N+](C)(C)C)C[C@@H]4C[C@H](OC(=O)C[N+](C)(C)C)CC[C@]4(C)[C@H]3CC[C@]12C	> 80
COC(=O)CC[C@@H](C)[C@H]1CC[C@H]2[C@@H]3[C@H](OC(=O)C[N+]4(C)CCCCC4)C[C@@H]4C[C@H](OC(=O)C[N+]5(C)CCCCC5)CC[C@]4(C)[C@H]3C[C@H](OC(=O)C[N+]3(C)CCCCC3)[C@]12C.[Cl-].[Cl-].[Cl-]	> 40
COC(=O)CC[C@@H](C)[C@H]1CC[C@H]2[C@@H]3[C@H](OC(=O)C[n+]4ccc(N(C)C)cc4)C[C@@H]4C[C@H](OC(=O)C[n+]5ccc(N(C)C)cc5)CC[C@]4(C)[C@H]3CC[C@]12C	> 320
COC(=O)CC[C@@H](C)[C@H]1CC[C@H]2[C@@H]3CC[C@@H]4C[C@H](OC(=O)C[n+]5ccccc5)CC[C@]4(C)[C@H]3C[C@H](OC(=O)C[n+]3ccccc3)[C@]12C	> 80
COC(=O)CC[C@@H](C)[C@H]1CC[C@H]2[C@@H]3CC[C@@H]4C[C@H](OC(=O)C[N+](C)(C)C)CC[C@]4(C)[C@H]3C[C@H](OC(=O)C[N+](C)(C)C)[C@]12C	< 20
COC(=O)CC[C@@H](C)[C@H]1CC[C@H]2[C@@H]3CC[C@@H]4C[C@H](OC(=O)C[N+](C)(C)C)CC[C@]4(C)[C@H]3CC[C@]12C	> 20
COC(=O)CC[C@@H](C)[C@H]1CC[C@H]2[C@@H]3[C@H](OC(=O)C[n+]4ccccc4)C[C@@H]4C[C@H](OC(=O)C[n+]5ccccc5)CC[C@]4(C)[C@H]3CC[C@]12C	> 40

Field: next compound
Query :: Using known records, supply selectivity ratio for `COC(=O)CC[C@@H](C)[C@H]1CC[C@H]2[C@@H]3CC[C@@H]4C[C@H](OC(=O)CN)CC[C@]4(C)[C@H]3C[C@H](OC(=O)CN)[C@]12C`
Result :: < 20
